experiment: MTT cytotoxicity assay, MCF-10A; format: cell-based; conditions: MCF-10A cells, immortalized human breast epithelial cell line, 48 h exposure, mean ± SD, three independent experiments
Parameter IC50 at 48 h: see the listing below.

# compound, unitAnnotation, valueComparator, IC50 at 48 h
records = [
    ("CNC1=CC(=O)c2c(O)c3c(c(O)c2C1=O)C[C@](C)(O)[C@H](O)[C@H]3O", "µM", ">", 50),
    ("COC1=CC(=O)c2c(O)c3c(c(O)c2C1=O)C[C@](C)(O)[C@H](O)[C@H]3O", "µM", "=", 14.1),
    ("CCCNC1=CC(=O)c2c(O)c3c(c(O)c2C1=O)C[C@](C)(O)[C@H](O)[C@H]3O", "µM", ">", 50),
    ("C[C@]1(O)Cc2c(O)c3c(c(O)c2[C@H](O)[C@H]1O)C(=O)C=C(NCCO)C3=O", "µM", ">", 50),
    ("CCSC1=C(SCC)C(=O)c2c(O)c3c(c(O)c2C1=O)C[C@](C)(O)[C@H](O)[C@H]3O [Compound 23, 6,7-bis(Ethylthio)-6-demethoxybostrycin]", "µM", "=", 14.8),
    ("COC1=CC(=O)c2c(O)c3c(c(O)c2C1=O)C[C@]1(C)OCO[C@@H]1[C@H]3OCO", "µM", "=", 4.79),
]

###

Parameter melting point: see the listing below.
quantity: melting point

# molecule, result
measured = [
    ("CC1SC2=C(SC1C)C(=O)c1c(O)c3c(c(O)c1C2=O)C[C@](C)(O)[C@H](O)[C@H]3O (stereo partly shown) [Compound 29]", "146 to 147 °C"),
    ("COC1=CC(=O)c2c(O)c3c(c(O)c2C1=O)C[C@]1(C)OC(=O)O[C@@H]1[C@H]3O [Compound 8, 2,3-O-(carbonyl) Bostrycin]", "246 to 247 °C"),
    ("C[C@]1(O)Cc2c(O)c3c(c(O)c2[C@H](O)[C@H]1O)C(=O)C1=C(SCCS1)C3=O [Compound 28]", "> 300 °C"),
    ("C[C@]1(O)Cc2c(O)c3c(c(O)c2[C@H](O)[C@H]1O)C(=O)C(SCCCO)=C(SCCCO)C3=O [Compound 27]", "150 to 151 °C"),
    ("CCCCCCNC1=CC(=O)c2c(O)c3c(c(O)c2C1=O)C[C@](C)(O)[C@H](O)[C@H]3O [Compound 12, 6-(n-Hexylamino)-6-demethoxybostrycin]", "203 to 204 °C"),
    ("C[C@]1(O)Cc2c(O)c3c(c(O)c2[C@H](O)[C@H]1O)C(=O)C=C(N1CCCCC1)C3=O [Compound 20, 6-(Piperidin-1-yl)-6-demethoxybostrycin]", "199 to 200 °C"),
    ("CC1CCN(C2=CC(=O)c3c(O)c4c(c(O)c3C2=O)C[C@](C)(O)[C@H](O)[C@H]4O)CC1 [Compound 21]", "162 to 163 °C"),
    ("C[C@]1(O)Cc2c(O)c3c(c(O)c2[C@H](O)[C@H]1O)C(=O)C=C(NCCOCCO)C3=O [Compound 14]", "112 to 113 °C"),
    ("COc1ccc(NC2=CC(=O)c3c(O)c4c(c(O)c3C2=O)C[C@](C)(O)[C@H](O)[C@H]4O)cc1 [Compound 16]", "202 to 203 °C"),
    ("C[C@]1(O)Cc2c(O)c3c(c(O)c2[C@H](O)[C@H]1O)C(=O)C=C(NCc1ccccc1)C3=O [Compound 17, 6-(Benzylamino)-6-demethoxybostrycin]", "153 to 154 °C"),
    ("COC1=CC(=O)c2c(O)c3c(c(O)c2C1=O)C[C@]1(C)OCO[C@@H]1[C@H]3OCO [Compound 7]", "233 to 234 °C"),
    ("C[C@]1(O)Cc2c(O)c3c(c(O)c2[C@H](O)[C@H]1O)C(=O)C=C(NCc1ccc(F)cc1)C3=O [Compound 19]", "147 to 148 °C"),
    ("COC1=CC(=O)c2c(O)c3c(c(O)c2C1=O)C[C@]1(C)OC(C=C(C)C)O[C@@H]1[C@H]3O (stereo partly shown) [Compound 6, 2,3-O-(3′-methylbut-2′-enyl) Bostrycin]", "200 to 201 °C"),
]

###

tested on: HepG2 cells; test: MTT cytotoxicity assay, HepG2; assay type: cell-based, human; conditions: human liver cancer cell line; MTT, 48 h exposure; mean ± SD, three independent experiments
pIC50: −log10 of the molar value.
quantity: pIC50

# compoundStructure, number
measured = [
    ("C[C@]1(O)Cc2c(O)c3c(c(O)c2[C@H](O)[C@H]1O)C(=O)C1=C(SCCS1)C3=O", 6.09),
]

###

Parameter melting point: see the listing below.
quantity: melting point

# compoundStructure, quantity, result
data = [
    ("COC1=CC(=O)c2c(O)c3c(c(O)c2C1=O)C[C@]1(C)OC(C)(C)O[C@@H]1[C@H]3O", "melting point", "228 to 229 °C"),
    ("CCCNC1=CC(=O)c2c(O)c3c(c(O)c2C1=O)C[C@](C)(O)[C@H](O)[C@H]3O", "melting point", "210 to 211 °C"),
    ("COC1=CC(=O)c2c(cc3c(c2O)C[C@@H](O)[C@@](C)(O)C3)C1=O", "melting point", "> 300 °C"),
]

###

Parameter melting point: see the listing below.

# molecule, melting point
rows = [
    ("C[C@]1(O)Cc2c(O)c3c(c(O)c2[C@H](O)[C@H]1O)C(=O)C(SCCO)=C(SCCO)C3=O [Compound 26]", "156 to 158 °C"),
    ("COC1=CC(=O)c2c(O)c3c(c(O)c2C1=O)C[C@](C)(O)[C@H](O)C3 [Compound 2, Deoxybostrycin]", "224 to 225 °C"),
    ("CCSC1=C(SCC)C(=O)c2c(O)c3c(c(O)c2C1=O)C[C@](C)(O)[C@H](O)[C@H]3O [Compound 23, 6,7-bis(Ethylthio)-6-demethoxybostrycin]", "180 to 181 °C"),
]

###

assay: MTT cytotoxicity assay, MCF-10A; format: cell-based; conditions: MCF-10A cells, immortalized human breast epithelial cell line, 48 h exposure, mean ± SD, three independent experiments
Decision: IC50 at 48 h beneath 10 µM gives satisfied; IC50 at 48 h meeting or exceeding 10 µM gives not satisfied.

# molecule, className
records = [
    ("CCCCNC1=CC(=O)c2c(O)c3c(c(O)c2C1=O)C[C@](C)(O)[C@H](O)[C@H]3O", "not satisfied"),
    ("C[C@]1(O)Cc2c(O)c3c(c(O)c2[C@H](O)[C@H]1O)C(=O)C1=C(SCCS1)C3=O", "satisfied"),
    ("COC1=CC(=O)c2c(O)c3c(c(O)c2C1=O)C[C@](C)(O)[C@H](O)C3", "not satisfied"),
    ("C[C@]1(O)Cc2c(O)c3c(c(O)c2[C@H](O)[C@H]1O)C(=O)C=C(Nc1ccccc1)C3=O", "not satisfied"),
    ("COc1cccc2c1C(=O)c1c(O)c3c(c(O)c1C2=O)C[C@@](O)(C(=O)CO)C[C@@H]3O[C@H]1C[C@H](N)[C@@H](O)[C@H](C)O1 [epirubicin, reference compound]", "satisfied"),
    ("COC1=CC(=O)c2c(cc3c(c2O)C[C@@H](O)[C@@](C)(O)C3)C1=O", "not satisfied"),
    ("CCCCCCSC1=C(SCCCCCC)C(=O)c2c(O)c3c(c(O)c2C1=O)C[C@](C)(O)[C@H](O)[C@H]3O", "not satisfied"),
    ("C[C@]1(O)Cc2c(O)c3c(c(O)c2[C@H](O)[C@H]1O)C(=O)C=C(NCCOCCO)C3=O", "not satisfied"),
    ("C[C@]1(O)Cc2c(O)c3c(c(O)c2[C@H](O)[C@H]1O)C(=O)C=C(NCc1ccc(F)cc1)C3=O", "satisfied"),
    ("COc1ccc(CNC2=CC(=O)c3c(O)c4c(c(O)c3C2=O)C[C@](C)(O)[C@H](O)[C@H]4O)cc1", "not satisfied"),
    ("COc1cc(O)c2c(c1O)C(=O)c1cc(C)ccc1C2=O", "not satisfied"),
    ("C[C@]1(O)Cc2c(O)c3c(c(O)c2[C@H](O)[C@H]1O)C(=O)C=C(NCc1ccccc1)C3=O", "not satisfied"),
    ("COC1=CC(=O)c2c(O)c3c(c(O)c2C1=O)C[C@]1(C)OC(C=C(C)C)O[C@@H]1[C@H]3O (stereo partly shown)", "not satisfied"),
]

###

Parameter melting point: see the listing below.
quantity: melting point

# compoundStructure, result
data = [
    ("C[C@]1(O)Cc2c(O)c3c(c(O)c2[C@H](O)[C@H]1O)C(=O)C=C(NCCO)C3=O", "202 to 203 °C"),
    ("COc1cc(O)c2c(c1O)C(=O)c1cc(C)ccc1C2=O", "232 to 233 °C"),
    ("CCCCNC1=CC(=O)c2c(O)c3c(c(O)c2C1=O)C[C@](C)(O)[C@H](O)[C@H]3O", "236 to 237 °C"),
    ("C[C@]1(O)Cc2c(O)c3c(c(O)c2[C@H](O)[C@H]1O)C(=O)C=C(Nc1ccccc1)C3=O", "226 to 227 °C"),
]
